Provide the recorded EC50 for the entries that follow.
target-system: human TRPM8 (Homo sapiens)
Construct: expressed in transfected cells; host or cells: CHO (p658 mammalian expression vector)
Sequence (Q7Z2W7 whole entry): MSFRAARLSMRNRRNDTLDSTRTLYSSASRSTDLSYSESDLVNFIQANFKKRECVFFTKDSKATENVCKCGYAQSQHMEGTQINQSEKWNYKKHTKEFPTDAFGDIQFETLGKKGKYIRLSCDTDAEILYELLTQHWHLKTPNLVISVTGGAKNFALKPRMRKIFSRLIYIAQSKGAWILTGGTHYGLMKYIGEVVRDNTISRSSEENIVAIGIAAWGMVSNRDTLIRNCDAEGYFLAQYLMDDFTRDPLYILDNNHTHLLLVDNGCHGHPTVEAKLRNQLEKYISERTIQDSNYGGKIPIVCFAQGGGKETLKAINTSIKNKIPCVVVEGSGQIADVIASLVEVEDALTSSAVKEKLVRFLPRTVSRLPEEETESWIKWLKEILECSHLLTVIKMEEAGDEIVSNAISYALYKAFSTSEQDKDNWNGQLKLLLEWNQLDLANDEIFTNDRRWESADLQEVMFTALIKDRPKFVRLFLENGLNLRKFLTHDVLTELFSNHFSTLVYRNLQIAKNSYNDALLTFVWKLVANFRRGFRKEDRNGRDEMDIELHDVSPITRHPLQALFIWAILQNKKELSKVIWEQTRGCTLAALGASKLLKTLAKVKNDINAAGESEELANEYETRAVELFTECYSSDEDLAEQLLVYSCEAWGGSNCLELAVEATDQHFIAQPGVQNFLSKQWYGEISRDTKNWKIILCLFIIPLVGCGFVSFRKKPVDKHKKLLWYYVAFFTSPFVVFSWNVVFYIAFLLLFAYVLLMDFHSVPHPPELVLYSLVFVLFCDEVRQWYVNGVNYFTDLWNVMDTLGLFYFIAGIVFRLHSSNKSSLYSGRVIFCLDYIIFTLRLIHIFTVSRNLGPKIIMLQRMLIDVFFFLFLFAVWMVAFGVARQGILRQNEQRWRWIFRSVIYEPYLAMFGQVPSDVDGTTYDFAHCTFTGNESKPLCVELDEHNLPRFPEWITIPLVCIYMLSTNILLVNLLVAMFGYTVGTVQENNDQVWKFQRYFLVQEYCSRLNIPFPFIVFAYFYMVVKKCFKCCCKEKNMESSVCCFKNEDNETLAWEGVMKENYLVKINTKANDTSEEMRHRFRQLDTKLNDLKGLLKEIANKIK
assay-text: In vitro human TRPM8 fluorescence calcium flux assay (recombinant CHO cells, Fluo4-AM, FDSS6000)
Format: cell-based
assay-context: recombinant CHO cells expressing human TRPM8; menthol-related EC50, normalized to 100 μM menthol

QUERY: Suppose we examine the compound COC(=O)COc1ccccc1CCNC(=O)[C@]1(O)C[C@H](C)CC[C@H]1C(C)C ; what EC50 value has been reported?
RESULT: 0.0111 µM

QUERY: Next record, please: CC(C)[C@@H]1CC[C@@H](C)C[C@@]1(O)C(=O)NCC1(O)CCc2ccc(Cl)cc21 (stereo partly shown)
RESULT: 0.0029 µM

QUERY: Next record, please: Cc1oc(=O)oc1COC(=O)c1cccc(CCNC(=O)[C@]2(O)C[C@H](C)CC[C@H]2C(C)C)c1
RESULT: 0.211 µM

QUERY: Next record, please: CC(C)[C@@H]1CC[C@@H](C)C[C@@]1(O)C(=O)NCC(O)c1ccccc1F (stereo partly shown)
RESULT: 0.0084 µM

QUERY: Next record, please: CC(C)[C@@H]1CC[C@@H](C)C[C@@]1(O)C(=O)NCCc1cccc(C(N)=O)c1
RESULT: 0.067 µM

QUERY: Next record, please: COC(=O)c1ccccc1CCNC(=O)[C@]1(O)C[C@H](C)CC[C@H]1C(C)C
RESULT: 0.0293 µM

QUERY: Next record, please: CC(C)[C@@H]1CC[C@@H](C)C[C@@]1(O)C(=O)NCC(O)(c1ccccc1)C(F)(F)F (single isomer, unassigned) [Example 82]
RESULT: 0.332 µM

QUERY: Next record, please: CC(C)[C@@H]1CC[C@@H](C)C[C@@]1(O)C(=O)NCC(O)c1cccc(O)c1 (stereo partly shown)
RESULT: 0.003 µM

QUERY: Next record, please: Cc1[nH]c2ccccc2c1CCNC(=O)[C@]1(O)C[C@H](C)CC[C@H]1C(C)C
RESULT: 0.13 µM

QUERY: Next record, please: CC(C)[C@@H]1CC[C@@H](C)C[C@@]1(O)C(=O)NC[C@@H](O)c1cccc(CO)c1
RESULT: 0.0349 µM

QUERY: Next record, please: CC(C)[C@@H]1CC[C@@H](C)C[C@@]1(O)C(=O)NCC1(O)CCc2ccccc21 (single isomer, unassigned) [Example 175]
RESULT: 0.043 µM

QUERY: Next record, please: CC(C)[C@@H]1CC[C@@H](C)C[C@@]1(O)C(=O)NCCc1ccccc1C(=O)OCCO
RESULT: 0.0252 µM

QUERY: Next record, please: COc1cc(CCNC(=O)[C@]2(O)C[C@H](C)CC[C@H]2C(C)C)cc(OC)c1O
RESULT: 0.433 µM

QUERY: Next record, please: CC(C)[C@@H]1CC[C@@H](C)C[C@@]1(O)C(=O)NCCc1ccccc1OCCCO
RESULT: 0.0402 µM

QUERY: Next record, please: COc1cc(CCNC(=O)[C@]2(O)C[C@H](C)CC[C@H]2C(C)C)ccc1O
RESULT: 0.0598 µM

QUERY: Next record, please: CC(C)[C@@H]1CC[C@@H](C)C[C@@]1(O)C(=O)NCC(=O)c1ccc(O)c(O)c1
RESULT: 0.0022 µM
